Source listed as patent US4401812A.

Would you kindly list MIC for each of these compounds?
Test system: Bacillus subtilis IAM-1027
Experiment: in vitro MIC, agar streak method
Assay type: cell-based
Conditions: IAM1027; Bacillus subtilis IAM-1027; Heart infusion agar; read-out: MIC
The reply should be a number in µg/mL, with the unit left off.

INPUT: Fill in the blank: the reported MIC of COC(=O)C1c2cc3c(c(O)c2C(OC2CC(N(C)C)C(OC4CCC(OC5CCC(O)C(C)O5)C(C)O4)C(C)O2)CC1(C)O)C(=O)c1c(O)cccc1C3=O (stereo not shown) is ____.
OUTPUT: 12.5

INPUT: Fill in the blank: the reported MIC of COC(=O)C1c2cc3c(c(O)c2C(OC2CC(N(C)C)C(O)C(C)O2)CC1(O)CC(C)=O)C(=O)c1c(O)cccc1C3=O (stereo not shown) is ____.
OUTPUT: 12.5

INPUT: Fill in the blank: the reported MIC of COC(=O)C1c2cc3c(c(O)c2C(OC2CC(N(C)C)C(O)C(C)O2)CC1(C)O)C(=O)c1c(O)cccc1C3=O (stereo not shown) is ____.
OUTPUT: 12.5

INPUT: Fill in the blank: the reported MIC of COC(=O)C1c2cc3c(c(O)c2C(OC2CC(N(C)C)C(OC4CC(O)C(O)C(C)O4)C(C)O2)CC1(O)CC(C)=O)C(=O)c1c(O)cccc1C3=O (stereo not shown) is ____.
OUTPUT: 12.5

INPUT: Fill in the blank: the reported MIC of COC(=O)C1c2cc3c(c(O)c2C(OC2CC(N(C)C)C(OC4CC(O)C(OC5CCC(O)C(C)O5)C(C)O4)C(C)O2)CC1(C)O)C(=O)c1c(O)cccc1C3=O (stereo not shown) is ____.
OUTPUT: 3.12

INPUT: Fill in the blank: the reported MIC of COC(=O)C1c2cc3c(c(O)c2C(OC2CC(N(C)C)C(OC4CC(O)C(OC5CCC(O)C(C)O5)C(C)O4)C(C)O2)CC1(O)CC(C)=O)C(=O)c1c(O)cccc1C3=O (stereo not shown) is ____.
OUTPUT: 3.12

INPUT: Fill in the blank: the reported MIC of COC(=O)C1c2cc3c(c(O)c2C(OC2CC(N(C)C)C(OC4CC(O)C(O)C(C)O4)C(C)O2)CC1(C)O)C(=O)c1c(O)cccc1C3=O (stereo not shown) is ____.
OUTPUT: 6.25
